Molecular target: (Homo sapiens, UniProt P08069)
Construct: human IGF1R kinase domain residues M954-C1367; made in house; host or cells: baculovirus expression (insect cells)
Sequence (P08069 954-1367): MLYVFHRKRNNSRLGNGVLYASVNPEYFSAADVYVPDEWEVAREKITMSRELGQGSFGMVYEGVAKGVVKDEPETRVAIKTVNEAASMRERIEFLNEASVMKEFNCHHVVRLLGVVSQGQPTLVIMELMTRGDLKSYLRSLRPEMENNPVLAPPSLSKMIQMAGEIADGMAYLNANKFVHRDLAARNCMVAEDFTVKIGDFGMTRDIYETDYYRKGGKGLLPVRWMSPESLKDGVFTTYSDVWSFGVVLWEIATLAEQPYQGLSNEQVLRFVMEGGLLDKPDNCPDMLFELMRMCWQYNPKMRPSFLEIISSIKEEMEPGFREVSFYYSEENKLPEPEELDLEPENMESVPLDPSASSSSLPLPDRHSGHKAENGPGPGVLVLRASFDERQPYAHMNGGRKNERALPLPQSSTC
Test: IGF1R kinase assay (LCCA), IGF 0P
Type: biochemical
pIC50: −log10 of the molar value.
Kindly supply the reported pIC50 values for the records listed here.

Request: May I ask what pIC50 has been recorded for Fc1ccc(-c2cc(CNc3nc(Nc4cc(C5CC5)n[nH]4)cc(N4CCOCC4)n3)on2)cc1 ?
Response: 6.30 to 7.30

Request: // query: CCN1CCN(c2cc(Nc3cc(C4CC4)n[nH]3)nc(NCc3cc(C(C)C)no3)n2)CC1
Response: 6.30 to 7.30

Request: Do the same for CN1CCN(c2cc(Nc3cc(C4CC4)n[nH]3)nc(NCc3cc(-c4ccnc(N)n4)no3)n2)CC1 please
Response: 6.30 to 7.30

Request: Next: CCc1cc(CNc2nc(Nc3cc(C4CC4)n[nH]3)cc(OCCN(C)C)n2)on1
Response: 6.30 to 7.30

Request: # repeat for Cc1cc(Nc2cc(C3CC3)[nH]n2)nc(NCc2cc(-c3ccc(F)cc3F)no2)n1
Response: 6.30 to 7.30

Request: Repeat for the following molecule: CN1CCN(c2cc(Nc3cc(C4CC4)[nH]n3)nc(NCc3cc(-c4ccoc4)no3)n2)CC1
Response: 6.30 to 7.30

Below are some molecules; for each one, tell me its pIC50.
1. CC(C)c1cc(Nc2cc(N3CCOCC3)nc(NCc3cc(-c4ccc(F)cc4)no3)n2)[nH]n1
2. CN1CCN(c2cc(Nc3cc(C4CC4)n[nH]3)nc(NCc3cc(-c4ccc(F)cc4)no3)n2)CC1

Response:
1. 6.30 to 7.30
2. 6.30 to 7.30
